Provenance of the data: paper PMC4168798

Items are presented alongside their recorded pKd.
- TESTED_ON: T1, Bfl-1 (c-myc-tagged, without the C-terminal trans-membrane region) (human)
- T1 sequence (Q16548 whole entry, looked up): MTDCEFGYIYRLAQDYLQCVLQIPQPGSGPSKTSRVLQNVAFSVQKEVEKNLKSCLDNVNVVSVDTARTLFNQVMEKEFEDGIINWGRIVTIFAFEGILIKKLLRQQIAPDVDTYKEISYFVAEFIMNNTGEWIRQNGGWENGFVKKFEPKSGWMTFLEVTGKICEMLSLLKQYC
- PROCEDURE_TEXT: fluorescence polarisation
Note on units: pKd is unitless, being -log10 of a concentration expressed in mol/L.

Would you please look over these solved cases?
{5/6‑fluorescein amidite}-RPEIWMGQGLRRLGDEINAYYAR-NH2 (designed binder) [A12, N-terminal fluorescein]
7.66
{5/6‑fluorescein amidite}-RPEIWLGQSLQRLGDEINAYYAR-NH2 (designed binder) [B3, N-terminal fluorescein]
7.59

Kindly consider the entry below.
Problem: Form field: reported pKd of {5/6‑fluorescein amidite}-RPEIWLTQHLQRLGDEINAYYAR-NH2 (designed binder) [MS3, N-terminal fluorescein]
Result: 6.10
